For each of the molecules below, state its pIC50.
- Target entity: recombinant N-terminal GST-tagged human Rho kinase 2 (ROCK2, amino acids 1-552) (Homo sapiens)
- Construct: ROCK2, amino acids 1-552, Invitrogen Inc., cat #PV3759; GST (N)
- Sequence (O75116 1-552): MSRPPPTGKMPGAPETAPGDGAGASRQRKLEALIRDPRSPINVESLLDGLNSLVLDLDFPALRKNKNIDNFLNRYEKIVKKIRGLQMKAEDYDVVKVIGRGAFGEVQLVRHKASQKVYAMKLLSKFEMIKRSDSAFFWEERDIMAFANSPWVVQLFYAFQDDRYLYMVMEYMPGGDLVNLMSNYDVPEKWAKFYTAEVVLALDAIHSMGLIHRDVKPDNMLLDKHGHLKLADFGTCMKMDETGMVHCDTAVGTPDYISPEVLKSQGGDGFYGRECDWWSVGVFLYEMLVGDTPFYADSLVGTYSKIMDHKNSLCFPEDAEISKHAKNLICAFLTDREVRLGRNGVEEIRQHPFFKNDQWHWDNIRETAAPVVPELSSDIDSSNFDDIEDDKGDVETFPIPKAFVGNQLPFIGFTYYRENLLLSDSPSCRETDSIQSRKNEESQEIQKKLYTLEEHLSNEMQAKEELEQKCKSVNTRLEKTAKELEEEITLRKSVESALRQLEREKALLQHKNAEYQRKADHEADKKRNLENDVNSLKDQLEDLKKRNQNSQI
- Assay method text: In vitro Rho kinase assay (luciferase-based ATP consumption), ROCK2
pIC50: −log10 of the molar value.

Summary for this molecule, "CS(=O)(=O)Nc1cccc(C(=O)NCc2nc(-c3ccncc3)n[nH]2)c1" : pIC50 is < 5.30

Quick note, pIC50 for "O=C(NCc1nc(-c2ccncc2)n[nH]1)c1n[nH]c2ccccc12" landed at > 5.30

The molecule listed as "O=C(NCc1nc(-c2ccncc2)n[nH]1)c1ccc(O)cc1O" shows pIC50 equal to > 5.30

"O=C(NCc1cc(-c2ccncc2)n[nH]1)c1ccc(O)cc1O" has a reported pIC50 of > 5.30
